- assaySystem: Estrogen receptor (Homo sapiens) (UniProt P03372)
- Sequence (P03372 whole entry, looked up): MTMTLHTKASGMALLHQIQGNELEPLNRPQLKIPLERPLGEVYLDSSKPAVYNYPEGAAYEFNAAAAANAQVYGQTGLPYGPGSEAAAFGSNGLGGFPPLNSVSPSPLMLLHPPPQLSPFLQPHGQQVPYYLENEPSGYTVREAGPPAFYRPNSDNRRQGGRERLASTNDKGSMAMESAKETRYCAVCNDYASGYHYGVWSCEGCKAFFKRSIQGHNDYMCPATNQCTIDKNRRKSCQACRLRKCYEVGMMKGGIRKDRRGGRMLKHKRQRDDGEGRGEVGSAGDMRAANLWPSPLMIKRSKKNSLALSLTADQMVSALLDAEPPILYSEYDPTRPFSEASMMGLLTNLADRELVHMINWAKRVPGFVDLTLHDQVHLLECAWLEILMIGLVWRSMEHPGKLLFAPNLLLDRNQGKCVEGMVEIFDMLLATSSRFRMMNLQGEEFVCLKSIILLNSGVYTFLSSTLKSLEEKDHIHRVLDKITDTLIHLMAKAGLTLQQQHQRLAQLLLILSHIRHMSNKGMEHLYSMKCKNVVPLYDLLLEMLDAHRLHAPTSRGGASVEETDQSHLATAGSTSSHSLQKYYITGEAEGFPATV
- assayProcedure: qHTS assay for small molecule agonists of estrogen receptor alpha signaling (AID 588514); further: nearly all actives have a fitted effect of over 70% in size
- reportedConditions: ER-alpha-UAS-bla HEK293, beta-lactamase ratio, 18 h; series mostly up to 76.8 µM
Results filed as inconclusive are left out. The source made the active and inactive calls. The call rests on the fitted dose curve.
Your reply should match one of these outcome classes. yes (1) for active, no (0) for inactive

- molecule: "CCCOC(=O)c1ccccc1C(=O)OCCC"
  assaySystem: "Estrogen receptor (Homo sapiens) (UniProt P03372)"
  classLabel: "no (0)"

*Q* Hi, do you know how `CCC[CH2][Sn]([Cl])([Cl])[Cl]` came out in this test?
*A* no (0)

*Q* Any idea what this test logged for `[O-][Br+2]([O-])O` ?
*A* no (0)

*Q* Hi, sorry to bother you, what did the test record for `O=C=NC1CCCCC1` ?
*A* no (0)

*Q* For `COc1ccc(C=O)cc1OC` , what call appears in the results of this test?
*A* no (0)

*Q* Look up the recorded call for `C=CCOC(C)=O` in this test.
*A* no (0)

*Q* Assay outcome for `C[C@H]1CCCC(=O)CCC/C=C/c2cc(O)cc(O)c2C(=O)O1` : what was it?
*A* yes (1)

*Q* Dear colleague, could you share the recorded outcome for `Clc1nc(Cl)nc(Nc2ccccc2Cl)n1` when you have a moment?
*A* no (0)

*Q* Would you mind telling me which call this test gave `ClC(Cl)=C(c1ccc(Cl)cc1)c1ccc(Cl)cc1` ?
*A* no (0)

*Q* Record lookup: outcome of this test for `CNC(=O)N(C)c1nnc(C(C)(C)C)s1` ?
*A* no (0)

*Q* So what was the verdict on `ClC(Cl)=C(Cl)C(Cl)=C(Cl)Cl` in this test?
*A* no (0)

###

- System: DIV17
- assayProcedure: qHTS profiling for inhibitors of Plasmodium falciparum proliferation (AID 504749); further: nearly all actives have a fitted effect of over 60% in size
- reportedConditions: P. falciparum in erythrocytes, SYBR Green DNA, 72 h; series mostly up to 28.7 µM
Records with an inconclusive call do not appear. Activity calls are given as the source filed them. Calls come from the whole dose curve; as a rule, active = well fitted inhibition curve with a large enough effect; inconclusive = small, poorly fitted or top-dose-only effect; inactive = flat fitted curve, though single readings scatter.
The categories you may choose from are Y for active, N for inactive

Below are worked cases with known answers.
- molecule: "C[N+]1([O-])[C@@H]2CC(OC(=O)[C@@H](CO)c3ccccc3)C[C@@H]1[C@H]1O[C@H]12 (some centres not stated)"
  classLabel: "N"
- molecule: "C[C@]12CC[C@H]3[C@@H](CCC4=CC(=O)CC[C@@]43C)[C@@H]1CC[C@@H]2O"
  classLabel: "N"
- molecule: "CN[C@@H](C)[C@H]1CC[C@@H](N)[C@@H](O[C@@H]2[C@@H](O)[C@@H](O[C@H]3OC[C@@](C)(O)[C@@H](NC)[C@@H]3O)[C@H](N)C[C@@H]2N)O1 (tested in a mixture with another compound)"
  classLabel: "N"

*Q* Which outcome was assigned to `NCC[C@H](O)C(=O)N[C@H]1C[C@@H](N)[C@@H](O[C@H]2O[C@@H](CN)[C@@H](O)[C@@H](O)[C@@H]2N)[C@@H](O[C@H]2O[C@@H](CO)[C@@H](O)[C@@H]2O)[C@@H]1O` in this test?
*A* N

*Q* How did this test come out for CCC(C)C1O[C@]2(C=CC1C)CC1CC(C/C=C(\C)[C@H](OC3CC(OC)C(O[C@H]4CC(OC)[C@@H](O)C(C)O4)C(C)O3)[C@@H](C)/C=C/C=C3\COC4C(O)C(C)=C[C@H](C(=O)O1)[C@@]34O)O2 (some centres not stated) ?
*A* Y

*Q* How did this test come out for `C#CCN(C)[C@@H](C)Cc1ccccc1` ?
*A* N

*Q* Outcome? `CCN[C@]1(c2cccs2)CCCCC1=O`
*A* N

*Q* Can you look up the reported call for CNC(C)[C@@H](O)c1ccccc1 (some centres not stated) for me?
*A* N

*Q* Could you please tell me the result logged for `[Hg+][c]1ccccc1` in this assay?
*A* Y

*Q* Could you kindly confirm the outcome this assay logged for ClC1=C(Cl)C2(Cl)C3C4CC(C5OC45)C3C1(Cl)C2(Cl)Cl (configuration not stated) ?
*A* N

*Q* Look up the recorded call for CNc1ccc(C(=O)CC(O)CCC(C)C2OC(=O)CC(O)CC(=O)CC(O)CC(O)CC(O)CC(O)CC3(O)CC(O)C(C(=O)OC)C(CC(O[C@@H]4OC(C)C(O)C(N)C4O)/C=C/C=C/C=C/C=C/C=C/C=C/C=C/C2C)O3)cc1 (some centres not stated) in this test.
*A* N

*Q* Dear all, I need the recorded test outcome for `CC[C@@]1(c2ccc(N)cc2)CCC(=O)NC1=O` , thank you.
*A* N

*Q* Call for entry `CC(C)N(CC[C@@](C(N)=O)(c1ccccc1)c1ccccn1)C(C)C` :
*A* N

*Q* Which result was noted for this molecule in the test: C[N+]1(C)[C@@H]2CC[C@H]1CC(OC(=O)[C@@H](CO)c1ccccc1)C2 (some centres not stated)
*A* N

*Q* Recorded call for `CC(=O)OCC(=O)[C@@H]1CC[C@H]2[C@H]3CC[C@H]4C[C@@H](O)CC[C@]4(C)[C@@H]3C(=O)C[C@@]12C` ?
*A* N

*Q* // param item: C=CC1CN2CCC1CC2C(OC(=O)OCC)c1ccnc2ccc(OC)cc12 (configuration not stated) ; yields the recorded call
*A* Y

*Q* Could you check what this test reported for `CNC[C@H](O)c1ccc(O)cc1` ?
*A* N
